Reported growth inhibition by drug alone values follow for various compounds
# Test system: RIVA
# Assay: growth inhibition by drug alone (1 - RLU/untreated control) (fraction); higher = stronger inhibition
# Test Parameters: 10 nM; time (day): 6; 177Lu-lilotomab satetraxetan 0 ug/ml
Structures can show the parent of a compound that is named as a salt.

{"Compound": "Cc1nnc(C(C)C)n1C1C[C@H]2CC[C@@H](C1)N2CC[C@H](NC(=O)C1CCC(F)(F)CC1)c1ccccc1 (stereo in doubt)", "Assay Target": "RIVA", "growth inhibition by drug alone": -0.0807}
{"Compound": "O=C(Nc1cccnc1)N1CCC(Cc2cccc(Oc3ccc(C(F)(F)F)cn3)c2)CC1", "Assay Target": "RIVA", "growth inhibition by drug alone": 0.34}
{"Compound": "Cc1ccnc(NS(=O)(=O)c2ccc(NC(=O)Nc3ccc(S(=O)(=O)Nc4nccc(C)n4)cc3)cc2)n1", "Assay Target": "RIVA", "growth inhibition by drug alone": -0.304}
{"Compound": "COc1cc2c(cc1O)CC[C@@H]1[C@@H]2CC[C@]2(C)[C@@H](O)CC[C@@H]12", "Assay Target": "RIVA", "growth inhibition by drug alone": -0.422}
{"Compound": "CNNCc1ccc(C(=O)NC(C)C)cc1 [Procarbazine hydrochloride (Matulane)]", "Assay Target": "RIVA", "growth inhibition by drug alone": -0.0516}
{"Compound": "O=C(O)C(Cc1c[nH]c2ccccc12)N1C(=O)c2ccccc2C1=O (stereo unspecified)", "Assay Target": "RIVA", "growth inhibition by drug alone": -0.485}
